measure name: IC50 (µM)
Answer with a number only, understood to be in µM.

Provide IC50, tested on ROS1 (Homo sapiens, UniProt P08922), for `Nc1ncc(-c2cnn(C3CCNCC3)c2)cc1-c1nnc(CC2CC2)o1` .
Sequence (P08922 28-2347): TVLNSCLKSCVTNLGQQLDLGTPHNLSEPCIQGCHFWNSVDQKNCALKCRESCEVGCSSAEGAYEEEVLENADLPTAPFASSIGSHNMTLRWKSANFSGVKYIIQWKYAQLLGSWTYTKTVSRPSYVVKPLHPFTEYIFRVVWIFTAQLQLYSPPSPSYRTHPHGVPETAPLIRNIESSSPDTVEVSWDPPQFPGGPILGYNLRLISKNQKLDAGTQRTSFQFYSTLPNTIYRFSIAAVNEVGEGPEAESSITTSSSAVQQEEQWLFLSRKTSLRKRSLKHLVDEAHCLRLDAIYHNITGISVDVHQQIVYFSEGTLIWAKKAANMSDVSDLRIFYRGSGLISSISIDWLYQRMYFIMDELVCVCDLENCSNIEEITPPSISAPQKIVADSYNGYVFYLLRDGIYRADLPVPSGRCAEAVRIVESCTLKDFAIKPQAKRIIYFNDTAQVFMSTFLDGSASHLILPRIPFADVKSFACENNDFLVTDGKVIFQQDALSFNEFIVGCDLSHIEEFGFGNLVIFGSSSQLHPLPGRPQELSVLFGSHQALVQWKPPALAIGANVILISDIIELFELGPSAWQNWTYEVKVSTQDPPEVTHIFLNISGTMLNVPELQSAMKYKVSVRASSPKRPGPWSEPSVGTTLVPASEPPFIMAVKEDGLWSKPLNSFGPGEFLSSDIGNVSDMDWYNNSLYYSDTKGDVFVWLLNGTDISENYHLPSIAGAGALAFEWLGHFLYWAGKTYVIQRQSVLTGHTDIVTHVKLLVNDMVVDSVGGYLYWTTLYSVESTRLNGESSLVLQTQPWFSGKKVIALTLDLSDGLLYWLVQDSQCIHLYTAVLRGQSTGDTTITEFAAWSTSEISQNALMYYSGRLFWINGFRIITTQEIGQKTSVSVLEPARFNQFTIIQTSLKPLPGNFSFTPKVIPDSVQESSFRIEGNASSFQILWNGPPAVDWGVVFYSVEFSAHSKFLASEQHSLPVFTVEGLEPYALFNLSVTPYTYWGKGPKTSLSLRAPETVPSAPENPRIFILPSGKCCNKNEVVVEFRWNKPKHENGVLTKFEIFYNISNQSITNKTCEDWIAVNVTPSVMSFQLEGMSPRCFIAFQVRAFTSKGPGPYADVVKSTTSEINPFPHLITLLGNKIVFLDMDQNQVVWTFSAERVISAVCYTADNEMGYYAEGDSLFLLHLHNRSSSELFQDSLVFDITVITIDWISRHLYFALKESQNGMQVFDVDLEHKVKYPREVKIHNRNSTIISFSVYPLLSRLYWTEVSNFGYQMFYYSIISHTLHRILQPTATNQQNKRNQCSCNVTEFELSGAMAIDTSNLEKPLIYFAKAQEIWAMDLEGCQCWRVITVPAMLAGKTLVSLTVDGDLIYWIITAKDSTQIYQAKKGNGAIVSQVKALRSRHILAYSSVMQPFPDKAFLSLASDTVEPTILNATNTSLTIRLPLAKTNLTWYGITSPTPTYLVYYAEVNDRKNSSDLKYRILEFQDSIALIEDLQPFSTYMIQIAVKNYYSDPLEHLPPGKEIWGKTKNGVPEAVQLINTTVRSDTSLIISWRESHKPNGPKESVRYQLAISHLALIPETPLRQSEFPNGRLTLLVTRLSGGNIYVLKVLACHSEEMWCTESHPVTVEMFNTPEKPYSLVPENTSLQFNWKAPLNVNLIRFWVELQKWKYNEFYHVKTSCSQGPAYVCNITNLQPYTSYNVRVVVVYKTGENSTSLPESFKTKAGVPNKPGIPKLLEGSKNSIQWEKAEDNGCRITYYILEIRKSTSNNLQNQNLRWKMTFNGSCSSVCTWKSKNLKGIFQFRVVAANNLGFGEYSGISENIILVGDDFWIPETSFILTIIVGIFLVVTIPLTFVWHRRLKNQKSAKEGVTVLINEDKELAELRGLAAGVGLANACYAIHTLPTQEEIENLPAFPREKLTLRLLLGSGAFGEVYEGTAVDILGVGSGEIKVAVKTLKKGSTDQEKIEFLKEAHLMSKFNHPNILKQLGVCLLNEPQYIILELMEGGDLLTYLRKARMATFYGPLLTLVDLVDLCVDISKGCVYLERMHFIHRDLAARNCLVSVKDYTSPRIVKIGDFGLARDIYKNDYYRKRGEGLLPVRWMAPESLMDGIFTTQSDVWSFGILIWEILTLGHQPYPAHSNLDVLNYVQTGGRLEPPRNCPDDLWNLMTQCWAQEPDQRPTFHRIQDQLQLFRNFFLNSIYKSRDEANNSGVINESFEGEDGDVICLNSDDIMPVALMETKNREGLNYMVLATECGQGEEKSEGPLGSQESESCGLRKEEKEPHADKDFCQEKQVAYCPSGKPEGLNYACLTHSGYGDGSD
0.023

====

Molecular target: NUAK1 (Homo sapiens)
Sequence (O60285 1-661): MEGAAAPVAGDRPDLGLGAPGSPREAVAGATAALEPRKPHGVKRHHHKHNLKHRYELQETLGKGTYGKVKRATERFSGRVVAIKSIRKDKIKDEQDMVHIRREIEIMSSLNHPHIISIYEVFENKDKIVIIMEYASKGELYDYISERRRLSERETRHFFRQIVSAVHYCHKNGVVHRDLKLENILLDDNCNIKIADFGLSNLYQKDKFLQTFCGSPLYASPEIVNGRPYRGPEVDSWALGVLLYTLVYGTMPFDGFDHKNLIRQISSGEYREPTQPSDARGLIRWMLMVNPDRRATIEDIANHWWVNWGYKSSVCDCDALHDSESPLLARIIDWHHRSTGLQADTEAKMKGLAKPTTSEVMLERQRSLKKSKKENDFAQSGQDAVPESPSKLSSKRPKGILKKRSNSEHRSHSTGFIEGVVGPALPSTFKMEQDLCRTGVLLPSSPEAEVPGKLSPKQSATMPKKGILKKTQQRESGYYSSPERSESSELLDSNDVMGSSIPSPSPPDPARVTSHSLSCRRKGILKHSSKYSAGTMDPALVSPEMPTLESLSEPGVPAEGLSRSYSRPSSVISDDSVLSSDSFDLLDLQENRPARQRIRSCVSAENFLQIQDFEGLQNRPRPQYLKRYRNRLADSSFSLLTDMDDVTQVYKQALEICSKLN
measure name: IC50
Don't forget the unit after the number, please.

Please report the measured IC50 for `Nc1ncc(-c2cnn(C3CCNCC3)c2)cc1-c1nnc(CC2CC2)o1`
62 nM

====

Biological target: MER (Homo sapiens)
Sequence (Q12866 21-999): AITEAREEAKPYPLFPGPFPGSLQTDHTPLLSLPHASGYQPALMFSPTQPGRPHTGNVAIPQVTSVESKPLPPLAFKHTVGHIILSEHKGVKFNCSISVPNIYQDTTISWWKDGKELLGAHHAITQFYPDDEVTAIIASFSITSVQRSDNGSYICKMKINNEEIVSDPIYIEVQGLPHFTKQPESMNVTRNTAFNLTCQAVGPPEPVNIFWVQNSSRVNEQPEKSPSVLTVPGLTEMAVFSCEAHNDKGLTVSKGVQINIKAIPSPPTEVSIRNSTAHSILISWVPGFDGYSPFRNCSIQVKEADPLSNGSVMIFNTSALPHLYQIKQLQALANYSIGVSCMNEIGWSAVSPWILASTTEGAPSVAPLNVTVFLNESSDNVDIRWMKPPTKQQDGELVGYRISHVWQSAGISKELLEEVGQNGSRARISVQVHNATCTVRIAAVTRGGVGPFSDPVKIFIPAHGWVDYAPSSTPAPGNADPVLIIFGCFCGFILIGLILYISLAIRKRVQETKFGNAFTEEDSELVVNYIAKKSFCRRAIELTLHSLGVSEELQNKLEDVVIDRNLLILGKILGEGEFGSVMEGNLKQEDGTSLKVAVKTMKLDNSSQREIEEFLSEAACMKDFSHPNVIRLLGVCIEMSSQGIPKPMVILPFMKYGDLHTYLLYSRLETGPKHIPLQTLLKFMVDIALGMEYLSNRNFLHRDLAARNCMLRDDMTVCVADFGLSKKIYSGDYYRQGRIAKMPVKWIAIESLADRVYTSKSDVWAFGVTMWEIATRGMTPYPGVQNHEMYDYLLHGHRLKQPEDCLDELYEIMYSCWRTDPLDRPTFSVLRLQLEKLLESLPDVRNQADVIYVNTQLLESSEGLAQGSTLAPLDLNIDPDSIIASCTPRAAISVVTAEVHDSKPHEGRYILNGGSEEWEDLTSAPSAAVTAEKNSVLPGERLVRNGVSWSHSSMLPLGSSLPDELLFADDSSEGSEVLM
measure name: pIC50
Friendly reminder that pIC50 comes from taking -log10 of the concentration in mol/L.

Please report the measured pIC50 for `Nc1ncc(-c2cnn(C3CCNCC3)c2)cc1-c1nnc(CC2CC2)o1`
7.20
